Target: human Thyroid Receptor alpha (THRa1), THRA (gene 7067) (UniProt P10827)
Sequence (P10827 whole entry, looked up): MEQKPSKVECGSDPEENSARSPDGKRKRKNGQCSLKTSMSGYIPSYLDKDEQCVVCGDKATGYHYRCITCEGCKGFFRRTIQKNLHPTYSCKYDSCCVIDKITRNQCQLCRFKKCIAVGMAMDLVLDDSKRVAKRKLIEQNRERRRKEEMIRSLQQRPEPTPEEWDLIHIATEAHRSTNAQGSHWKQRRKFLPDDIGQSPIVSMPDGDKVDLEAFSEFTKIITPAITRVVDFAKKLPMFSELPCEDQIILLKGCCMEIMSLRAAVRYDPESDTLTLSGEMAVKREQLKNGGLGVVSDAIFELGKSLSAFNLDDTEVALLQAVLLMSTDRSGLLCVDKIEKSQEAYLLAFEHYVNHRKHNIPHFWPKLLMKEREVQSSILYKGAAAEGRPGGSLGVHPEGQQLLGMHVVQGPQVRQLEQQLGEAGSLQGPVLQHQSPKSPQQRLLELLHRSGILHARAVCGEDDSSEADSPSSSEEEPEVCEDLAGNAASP
Experiment: ATG_THRa1_TRANS: Attagene TRANS-FACTORIAL HepG2 Assay for human Thyroid Receptor alpha (THRa1) (AID 2283014)
Procedure: ATG_TRANS is a cell-based, multiplexed-readout assay that uses HepG2, a human liver cell line, with measurements taken at 24 hours after chemical dosing in a 24-well plate.ATG_THRa1_TRANS is one of 30 assay component(s) measured or calculated from the ATG_TRANS assay. […] This assay endpoint, ATG_THRa1_TRANS, was analyzed in the positive analysis fitting direction relative to DMSO as the negative control and baseline of activity. […]
Inconclusive results are not listed. Calls of active or inactive are those of the source. The calls were made as follows: active = hit-call score of the fitted dose curve at least 0.9, where 1 is the maximum; inconclusive = response in the unintended direction; inactive = score below 0.9.
Choose one outcome from this list and give only that: label 1 = active, label 0 = inactive

>>> print(df.to_string())
                                   compound  category
0  Cc1ccc(S(=O)(=O)Oc2ccc(N=Nc3ccc(-c4ccc(N=Nc5c(O)ccc6cc(S(=O)(=O)O)cc(S(=O)(=O)O)c56)c(C)c4)cc3C)cc2)cc1   label 0
1                      c1ccc(CCc2ccccc2)cc1   label 0
2                     Cc1ccc(S(N)(=O)=O)cc1   label 0
3  Clc1ccc(C(c2ccccc2Cl)C(Cl)Cl)cc1 (stereo not drawn)   label 0
4          CC(O)C1CCCCC1 (stereo not drawn)   label 0

Ask: How was C[C@H]1C[C@@H](O)CC(C)(C)C1 classified in this test?
Result: label 0

Ask: Dear all, I need the recorded test outcome for OCc1ccc(Cl)cc1Cl , thank you.
Result: label 0

Ask: Per the assay record, what outcome was assigned to CCN(CC)C(=O)N(CC)CC ?
Result: label 0

Ask: Please let me know the test result on file for C=CC(C)C#N (stereo not drawn) .
Result: label 0

Ask: I'd appreciate the recorded outcome for CCC1CCCCC1 from this test.
Result: label 0

Ask: Called result for CCOc1ccc(N=Nc2ccc(C=Cc3ccc(N=Nc4ccc(OCC)cc4)cc3S(=O)(=O)O)c(S(=O)(=O)O)c2)cc1
Result: label 0

Ask: Assay result, entry Cc1cc(S(=O)(=O)O)ccc1N=Nc1c(O)ccc2ccccc12 — outcome?
Result: label 0

Ask: For CCCCCCC(C)Nc1ccc(Nc2ccccc2)cc1 (stereo not drawn) , which call appears in the assay record?
Result: label 1
